- testedTarget: PADI4, Q9UM07
- Sequence (Q9UM07 whole entry): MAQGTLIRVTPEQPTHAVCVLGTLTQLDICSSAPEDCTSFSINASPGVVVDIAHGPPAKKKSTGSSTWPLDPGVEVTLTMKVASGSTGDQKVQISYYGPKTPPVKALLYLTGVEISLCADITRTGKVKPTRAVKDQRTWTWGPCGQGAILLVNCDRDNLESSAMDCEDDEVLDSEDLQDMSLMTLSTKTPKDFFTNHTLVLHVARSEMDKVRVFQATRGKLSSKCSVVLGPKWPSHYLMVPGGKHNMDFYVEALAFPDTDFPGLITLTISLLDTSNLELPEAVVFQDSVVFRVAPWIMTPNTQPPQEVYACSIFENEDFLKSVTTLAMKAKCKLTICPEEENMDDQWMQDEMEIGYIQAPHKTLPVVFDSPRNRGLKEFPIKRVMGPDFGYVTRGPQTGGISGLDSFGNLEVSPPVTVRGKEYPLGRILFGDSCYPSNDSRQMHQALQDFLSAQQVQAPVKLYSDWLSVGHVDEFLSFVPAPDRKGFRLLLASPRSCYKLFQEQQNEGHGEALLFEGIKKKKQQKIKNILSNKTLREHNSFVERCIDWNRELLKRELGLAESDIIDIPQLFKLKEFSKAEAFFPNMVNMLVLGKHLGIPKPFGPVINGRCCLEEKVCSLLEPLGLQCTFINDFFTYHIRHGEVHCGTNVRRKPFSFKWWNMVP
- methodSummary: log2 enrichment score relative to parent PADI4_3 peptide (binding to PADI4); higher = tighter binding than parent
- appliedConditions: CaCl2: 10 mM
reportedEndpoint: log2 enrichment score
Enter a number only.

Recorded results for 5 binders are shown here.
YRDHHYRHDKYCG [PADI4_3_P9D P9D] :: -2.06
YRDYHYRHPKYCG [PADI4_3_H4Y H4Y] :: -3.97
YRDGHYRHPKYCG [PADI4_3_H4G H4G] :: -3.75
YRDCHYRHPKYCG [PADI4_3_H4C H4C] :: -3.15
YRDHHYKHPKYCG [PADI4_3_R7K R7K] :: -0.44

log2 enrichment score in this record for YRDHHYRFPKYCG [PADI4_3_H8F H8F] : -3.69

log2 enrichment score in this record for YRDHHYRHPRYCG [PADI4_3_K10R K10R] : -0.238

log2 enrichment score in this record for YRIHHYRHPKYCG [PADI4_3_D3I D3I] : -4.17

log2 enrichment score in this record for YRDHHYRNPKYCG [PADI4_3_H8N H8N] : -2.87
